- protocol_summary: Residual toxicity against compound treated rice leaves-fed adult Anagrus nilaparvatae assessed as mortality measured on day 7 post insecticide treatment to plant
- reported_conditions: in vivo

{"line_notation": "CCOP(=S)(OCC)Oc1ncn(-c2ccccc2)n1", "mortality at 7 day (%)": 54.6}

###

- protocol_summary: Residual toxicity against compound treated rice leaves-fed adult Anagrus nilaparvatae assessed as mortality measured on day 7 post insecticide treatment to plant
- reported_conditions: in vivo, oral
measurement_label: mortality at 7 day (%)

{"compound": "O=[N+]([O-])NC1=NCCN1Cc1ccc(Cl)nc1", "inequality_symbol": "=", "assay_value": 80.7}
{"compound": "CN1COCN(Cc2cnc(Cl)s2)/C1=N\\[N+](=O)[O-]", "inequality_symbol": "=", "assay_value": 66.8}
{"compound": "CCOc1ccc([Si](C)(C)CCCc2ccc(F)c(Oc3ccccc3)c2)cc1", "inequality_symbol": "=", "assay_value": 1.1}
{"compound": "N#Cc1nn(-c2c(Cl)cc(C(F)(F)F)cc2Cl)c(N)c1[S+]([O-])C(F)(F)F (stereo unspecified)", "inequality_symbol": "=", "assay_value": 50}
{"compound": "CCOP(=S)(OCC)Oc1nc(Cl)c(Cl)cc1Cl", "inequality_symbol": "<", "assay_value": 10}
{"compound": "COP(N)(=O)SC (stereo unspecified)", "inequality_symbol": "<", "assay_value": 10}

###

- protocol_summary: Acute oral toxicity against female adult Anagrus nilaparvatae in petridish under laboratory conditions assessed as mortality compound treated as emulsible concentrate with acetone and Triton X-100 measured after 1 to 8 hr
- reported_conditions: in vivo
measurement_label: mortality (%)

{"compound": "CC(C)N1C(=O)N(c2ccccc2)CS/C1=N\\C(C)(C)C", "endpoint_unit": "%", "assay_value": 29.4}
{"compound": "Cc1cc(C)cc(C(=O)N(NC(=O)c2ccc3c(c2C)OC(C)C3)C(C)(C)C)c1 (centres undefined)", "endpoint_unit": "%", "assay_value": 1.1}
{"compound": "O=C(NC(=O)c1c(F)cccc1F)Nc1cc(Cl)c(Oc2ncc(C(F)(F)F)cc2Cl)c(Cl)c1", "endpoint_unit": "%", "assay_value": 4}
{"compound": "O=C(NC(=O)c1c(F)cccc1F)Nc1cc(Cl)c(OC(F)(F)C(F)F)c(Cl)c1", "endpoint_unit": "%", "assay_value": 1.3}

###

- protocol_summary: Acute oral toxicity against female adult Anagrus nilaparvatae in petridish under laboratory conditions assessed as mortality compound treated as emulsible concentrate with acetone and Triton X-100 measured after 8 hr
- reported_conditions: in vivo
measurement_label: mortality at 8 h (%)

{"compound": "CCOc1ccc([Si](C)(C)CCCc2ccc(F)c(Oc3ccccc3)c2)cc1", "endpoint_unit": "%", "assay_value": 37.6}
{"compound": "COP(=O)(OC)OC=C(Cl)Cl", "endpoint_unit": "%", "assay_value": 100}
{"compound": "CCOP(=S)(OCC)Oc1nc(Cl)c(Cl)cc1Cl", "endpoint_unit": "%", "assay_value": 100}
{"compound": "CCOP(=S)(OCC)Oc1ncn(-c2ccccc2)n1", "endpoint_unit": "%", "assay_value": 100}
{"compound": "COP(N)(=O)SC (stereo unspecified)", "endpoint_unit": "%", "assay_value": 100}
{"compound": "N#Cc1nn(-c2c(Cl)cc(C(F)(F)F)cc2Cl)c(N)c1[S+]([O-])C(F)(F)F (stereo unspecified)", "endpoint_unit": "%", "assay_value": 100}
